EC50 (pM), HEK-Blue IL-18R reporter assay values for the binders below.
Biological target: T1, IL-18 receptor (IL-18Rαβ) on cells (UniProt Q13478 19-541; O95256 20-599, limits assumed)
T1 sequence (looked up) 1: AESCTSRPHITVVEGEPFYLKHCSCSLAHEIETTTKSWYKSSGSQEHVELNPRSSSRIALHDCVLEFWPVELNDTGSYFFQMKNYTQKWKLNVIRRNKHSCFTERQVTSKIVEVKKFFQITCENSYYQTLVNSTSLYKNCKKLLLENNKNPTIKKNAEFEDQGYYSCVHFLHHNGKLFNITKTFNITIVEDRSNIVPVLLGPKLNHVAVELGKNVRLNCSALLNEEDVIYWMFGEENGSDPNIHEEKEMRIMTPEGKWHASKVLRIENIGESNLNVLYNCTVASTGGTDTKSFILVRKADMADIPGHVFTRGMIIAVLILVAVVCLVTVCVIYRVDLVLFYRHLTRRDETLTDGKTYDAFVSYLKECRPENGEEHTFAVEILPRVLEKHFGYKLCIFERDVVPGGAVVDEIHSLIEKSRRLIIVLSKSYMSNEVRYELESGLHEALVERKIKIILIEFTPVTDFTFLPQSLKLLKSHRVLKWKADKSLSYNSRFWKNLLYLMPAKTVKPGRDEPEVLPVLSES
T1 sequence (looked up) 2: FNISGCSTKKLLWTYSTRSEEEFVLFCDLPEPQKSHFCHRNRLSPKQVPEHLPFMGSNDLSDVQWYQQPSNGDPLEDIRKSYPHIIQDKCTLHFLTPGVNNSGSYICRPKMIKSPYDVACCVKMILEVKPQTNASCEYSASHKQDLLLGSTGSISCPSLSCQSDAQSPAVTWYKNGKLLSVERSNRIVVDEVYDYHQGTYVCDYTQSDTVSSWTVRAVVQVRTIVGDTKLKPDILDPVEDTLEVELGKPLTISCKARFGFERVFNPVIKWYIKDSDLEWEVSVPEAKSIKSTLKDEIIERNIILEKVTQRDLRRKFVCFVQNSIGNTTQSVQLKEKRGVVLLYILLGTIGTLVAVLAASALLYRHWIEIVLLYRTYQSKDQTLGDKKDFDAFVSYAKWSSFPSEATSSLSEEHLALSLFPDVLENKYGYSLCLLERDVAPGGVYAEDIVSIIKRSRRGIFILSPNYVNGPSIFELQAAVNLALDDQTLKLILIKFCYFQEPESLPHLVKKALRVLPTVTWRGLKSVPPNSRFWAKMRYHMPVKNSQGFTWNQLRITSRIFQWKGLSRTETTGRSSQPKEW
Assay: cell-based or functional assay
Expressed in pM, but write only the number.

C150 (V11I, T34A, C38A, K53A, C76A, C127A) (ligand) YFGKLESKLSIIRNLNDQVLFIDQGNRPLFEDMADSDARDNAPRTIFIISMYADSQPRGMAVTISVKCEKISTLSAENKIISFKEMNPPDNIKDTKSDIIFFQRSVPGHDNKMQFESSSYEGYFLAAEKERDLFKLILKKEDELGDRSIMFTVQNED | 0.7

Ask: Value lookup for EC50 (pM), HEK-Blue IL-18R reporter assay; key = C142 (Y1M, E6K, V11I, C38A, K53A, T63A, C76A, C127A) (ligand) MFGKLKSKLSIIRNLNDQVLFIDQGNRPLFEDMTDSDARDNAPRTIFIISMYADSQPRGMAVAISVKCEKISTLSAENKIISFKEMNPPDNIKDTKSDIIFFQRSVPGHDNKMQFESSSYEGYFLAAEKERDLFKLILKKEDELGDRSIMFTVQNED
Reply: 0.02

Ask: Value lookup for EC50 (pM), HEK-Blue IL-18R reporter assay; key = C166 (V11I, C38A, S55T, C76A, C127A) (ligand) YFGKLESKLSIIRNLNDQVLFIDQGNRPLFEDMTDSDARDNAPRTIFIISMYKDTQPRGMAVTISVKCEKISTLSAENKIISFKEMNPPDNIKDTKSDIIFFQRSVPGHDNKMQFESSSYEGYFLAAEKERDLFKLILKKEDELGDRSIMFTVQNED
Reply: 4.73
